Value source: ChEMBL document CHEMBL4706509

Please respond with reported pIC50 for every item in the list.
# Tested on: SW1990
# procedure text: Antitumor activity against human SW1990 cells assessed as inhibition of cell growth measured after 48 hrs by MTT assay
# Assay type: functional, cell-based
# test conditions: SW1990, 48 h
Numbers only, as −log10 of the molar value.

Observe how each entry below is paired with its result.
{"molecule": "CC[C@@]1(OC(=O)NCCOCCO[C@@H]2O[C@H](CO)[C@@H](O)[C@H](O)[C@H]2O)C(=O)OCc2c1cc1n(c2=O)Cc2cc3ccccc3nc2-1", "reported endpoint": "pIC50", "number": 5.02}
{"molecule": "CC[C@@]1(OC(=O)NCCOCCOCCO[C@@H]2O[C@H](COC(C)=O)[C@H](OC(C)=O)[C@H](OC(C)=O)[C@H]2OC(C)=O)C(=O)OCc2c1cc1n(c2=O)Cc2cc3ccccc3nc2-1", "reported endpoint": "pIC50", "number": 5.08}
{"molecule": "CC[C@@]1(OC(=O)NCCO[C@@H]2O[C@H](COC(C)=O)[C@@H](OC(C)=O)[C@H](OC(N)=O)[C@@H]2OC(C)=O)C(=O)OCc2c1cc1n(c2=O)Cc2cc3ccccc3nc2-1", "reported endpoint": "pIC50", "number": 4.69}
{"molecule": "CC[C@@]1(OC(=O)NCCOCCOCCO[C@@H]2O[C@H](CO)[C@@H](O)[C@H](O)[C@@H]2O)C(=O)OCc2c1cc1n(c2=O)Cc2cc3ccccc3nc2-1", "reported endpoint": "pIC50", "number": 4.79}
{"molecule": "CC[C@@]1(OC(=O)NCCOCCOC2O[C@H](COC(C)=O)[C@@H](OC(C)=O)[C@H](OC(C)=O)[C@H]2OC(C)=O)C(=O)OCc2c1cc1n(c2=O)Cc2cc3ccccc3nc2-1 (single isomer, unassigned)", "reported endpoint": "pIC50", "number": 4.99}
{"molecule": "CC[C@@]1(OC(=O)NCCOCCO[C@@H]2O[C@H](CO)[C@@H](O)[C@H](O)[C@@H]2O)C(=O)OCc2c1cc1n(c2=O)Cc2cc3ccccc3nc2-1", "reported endpoint": "pIC50", "number": 5.49}
{"molecule": "CC[C@@]1(OC(=O)NCCO[C@@H]2O[C@H](CO)[C@@H](O)[C@H](OC(N)=O)[C@@H]2O)C(=O)OCc2c1cc1n(c2=O)Cc2cc3ccccc3nc2-1", "reported endpoint": "pIC50", "number": 4.48}
{"molecule": "CC[C@@]1(OC(=O)NCCOCCO[C@@H]2O[C@H](CO)[C@H](O)[C@H](O)[C@H]2O)C(=O)OCc2c1cc1n(c2=O)Cc2cc3ccccc3nc2-1", "reported endpoint": "pIC50", "number": 4.97}
{"molecule": "CC[C@@]1(OC(=O)NCCOCCOCCOC2O[C@H](COC(C)=O)[C@@H](OC(C)=O)[C@H](OC(N)=O)[C@@H]2OC(C)=O)C(=O)OCc2c1cc1n(c2=O)Cc2cc3ccccc3nc2-1 (single isomer, unassigned)", "reported endpoint": "pIC50", "number": 4.50}
{"molecule": "CC[C@@]1(OC(=O)NCCO[C@@H]2O[C@H](COC(C)=O)[C@@H](OC(C)=O)[C@H](OC(C)=O)[C@@H]2O[C@H]2O[C@H](COC(C)=O)[C@@H](OC(C)=O)[C@H](OC(N)=O)[C@H]2OC(C)=O)C(=O)OCc2c1cc1n(c2=O)Cc2cc3ccccc3nc2-1", "reported endpoint": "pIC50", "number": 4.60}

Record "CC[C@@]1(OC(=O)NCCO[C@@H]2O[C@H](CO)[C@@H](O)[C@H](O)[C@H]2O)C(=O)OCc2c1cc1n(c2=O)Cc2cc3ccccc3nc2-1" ; system SW1990; pIC50 = 4.99
